Molecular target: T1, recombinant human interleukin-4 (human, UniProt P05112 25-153)
T1 sequence (looked up): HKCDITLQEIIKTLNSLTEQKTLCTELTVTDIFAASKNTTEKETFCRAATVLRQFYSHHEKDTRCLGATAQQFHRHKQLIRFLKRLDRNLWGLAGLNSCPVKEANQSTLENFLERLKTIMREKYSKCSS
Assay: cell-based or functional assay
Examples of binders with documented IL-4 induced IgE IC50 follow.
Please give a number only; it is taken to be in nM.

Check out these entries, answers already filled in.
| binder | IL-4 induced IgE IC50 [nM] |
| --- | --- |
| Example 3 antibody comprising SEQ ID NO:17 and SEQ ID NO:18 (antibody, human IgG1, V domains shown, also called Ex. 3) VH: QVQLVESGGGMVQPGRSLRLSCAASGFTLSSYGMHWVRQAPGKGLEWVTVIWYDGNNQYYADSVKGRFTISRDNSKNTLYLQMNSLRAEDTAVYYCAREGSWSPDIFDIWGQGTMVTVSS VL: AIQLTQSPSSLSASVGDRVTITCRASQGISSYLAWYQQKPGKAPKLLIYDASSLESGVPSRFSGSGSGTDFTLTISSLQPEDFATYYCQQFNSYPITFGQGTRLEIKR | 7.81 |
| Example 1 antibody comprising SEQ ID NO:1 and SEQ ID NO:2 (human IL-4 specific monoclonal antibody) (antibody, human IgG1, V domains shown, also called Ex. 1; mAb as defined by CDRs as described in claim 2a)) VH: QVQLVESGGGVVQPGRSLRLSCAASGFTFSSYAMHWVRQAPGKGLEWVTFIWDDGSFKYYAESVKGRFTISRDNSKNTLYLQMNSLRAEDTAVYYCAREGSWSPDIFDIWGQGTMVTVSS VL: AIQLTQSPSSLSASVGDRVTITCRASQGISRALAWYQQKPGKAPKLLIYDASSLESGVPSRFSGSGSGTDFTLTISSLQPEDFATYYCQQFNSYPITFGQGTRLEIKR | 2.81 |

Consider the additional binder presented here.
Inquiry: Return IL-4 induced IgE IC50 (reported value) for this binder: Example 5 antibody comprising SEQ ID NO:33 and SEQ ID NO:34 (antibody, human IgG1, V domains shown, also called Ex. 5) VH: QVQLVESGGGVVQPGRSLRLSCAASGFTFSCCGMHWVRQAPGKGLEWVAVIWYDGSNKYYADSVKGRFTISRDTSKNTLYLQMNSLRAEDTAVYYCATDSSGSFYEYFQHWGQGTLVTVSS VL: AIQLTQSPSSLSASVGDRVTITCRASQGINSALAWYQQKPGKAPKLLIYDASSLESGVPSRFSGSGSGTDFTLTISSLQPEDFATYYCQQFNSYPYTFGQGTKLEIKR
Reply text: 9.94
